Let's look at some compounds and their measured TGI.
- Test system: SNB-75 CNS
- EXPERIMENT: NCI tumour cell line growth inhibition, 48 h

Previously resolved entries follow.
# COMPOUND, VAL
measured = [
    ("CC(C)(C)OC(=O)[N+](=N)C(=O)C1CCC(=O)N1C(=O)OCc1ccccc1 (stereo not drawn)", "> 100 µM"),
    ("CN1C2CCC1CC(OC(c1ccccc1)c1ccccc1)C2 (stereo not drawn)", "72.8 µM"),
]

Now for a further compound.
**Q:** Can you share its TGI? I mean this compound: `O=C1OC(c2ccco2)=N/C1=C\c1ccc(Cl)c(Cl)c1`
**A:** > 100 µM

====

Let's look at some compounds and their measured TGI.
- System: UACC-257 melanoma
- EXPERIMENT: NCI tumour cell line growth inhibition, 48 h
Write down the numeric answer in µM and omit the unit.

Previously resolved entries follow.
# COMPOUND, UNITS, TGI
measured = [
    ("CC(C)(C)[Si](C)(C)OCC1CCC(n2cnc3c(NC(=O)c4ccccc4)ncnc32)O1 (stereo not given)", "µM", 33.4),
    ("CC(C)(C)[OH+][O-].[O-]c1ccc(Cl)cc1C=Nc1ccc(Cl)cc1[O-].[O]=[V]", "µM", 36.4),
    ("CCCCCCCCC[C@@H]1C[C@@H]2CCC3C(C(=O)OC)=C(C)NC(=N1)N32 (stereo not given in full)", "µM", 27),
]

**Q:** Can you share its TGI? I mean this compound: `Cn1c(C(N)=O)cc2c1-c1nc(Nc3ccccc3)ncc1CCC2`
**A:** 88.7

**Q:** Can you share its TGI? I mean this compound: `O=[N+]([O-])c1cnc(Sc2ccncn2)c([N+](=O)[O-])c1`
**A:** 3.38

**Q:** Can you share its TGI? I mean this compound: Cc1ccc(NC(c2ccccc2)c2ccc3cccnc3c2O)cc1 (stereo not given)
**A:** 25.8

====

- Test system: HOP-62 NSCLC
- EXPERIMENT: NCI tumour cell line growth inhibition, 48 h
Let's look at some molecules and their measured TGI.

Previously resolved entries follow.
# MOLECULE, TGI
rows = [
    ("COc1nc2c(OC)cccc2c(OC)c1C=O", "> 100 µM"),
    ("CC[C@@H]1C[C@@H]2CN3CCc4c([nH]c5ccc(OC)cc45)C(COC(=O)c4ccc(OC)c(OC)c4)(C2)C13", "93 µM"),
    ("CCOC(=O)CC(=O)NC1CC2CCC1(C)C2(C)C (stereo not given)", "> 100 µM"),
    ("C[C@]12CC[C@@H]3c4ccc(O)cc4CC[C@H]3[C@@H]1C/C(=C\\c1ccc([N+](=O)[O-])cc1)C2=O", "> 100 µM"),
    ("Cc1ccc(/C=C2\\CN(C)CC3=C2OC(N)=C(C#N)C3c2ccc(C)cc2)cc1 (stereo not given)", "52.7 µM"),
]

**Q:** What TGI appears in the records for this molecule with HOP-62 NSCLC? `S=CN1CCCCC1`
**A:** > 100 µM

**Q:** What TGI appears in the records for this molecule with HOP-62 NSCLC? `CC(C)(C)[OH+][O-].[O-]c1ccc(Cl)cc1C=Nc1ccc(Cl)cc1[O-].[O]=[V]`
**A:** 74.1 µM

**Q:** What TGI appears in the records for this molecule with HOP-62 NSCLC? `Clc1ccc(-c2nn3c(CCCCCCCCc4nnc5sc(-c6ccc(Cl)cc6)nn45)nnc3s2)cc1`
**A:** > 83.2 µM

**Q:** What TGI appears in the records for this molecule with HOP-62 NSCLC? O=C(Nc1ccc(Cl)c(C(F)(F)F)c1)C(=O)C(C(=O)/C=C/c1ccccc1)C1OC(=O)c2ccccc21 (stereo not given)
**A:** > 100 µM

**Q:** What TGI appears in the records for this molecule with HOP-62 NSCLC? `CN(C)CCNC(=O)c1ccc(Nc2nc3ccccc3c3occc23)cc1`
**A:** 8.16 µM
